assay_target: Cellular tumor antigen p53 (Homo sapiens)
assay_procedure: TOX21_p53_BLA_p3_ratio: Tox21 HCT-116 p53 Agonism Beta-lactamase Assay, Ratio, Phase 3 (AID 2283596)
Inconclusive results are not listed. Calls of active or inactive are those of the source. The calls were made as follows: active = hit-call score of the fitted dose curve at least 0.9, where 1 is the maximum; inconclusive = response in the unintended direction; inactive = score below 0.9.
Classes to choose from: active, inactive

Exercise: Answer briefly: the call reported for OCC1CC2CC1C1CCC(CO)C21 (configuration not stated) in this assay.
Solution: inactive

Exercise: Answer briefly: the call reported for "CN=C(NC#N)NCCSCc1csc(N=C(N)N)n1" in this assay.
Solution: inactive

Exercise: Answer briefly: the call reported for "C1CCCC1" in this assay.
Solution: inactive

Exercise: Answer briefly: the call reported for "CCCn1cnc2c1c(=O)n(CCCCC(C)=O)c(=O)n2C" in this assay.
Solution: inactive

Exercise: Answer briefly: the call reported for "COc1cccc(OC)c1C(=O)O" in this assay.
Solution: inactive

Exercise: Answer briefly: the call reported for CC(C)(C)C(=O)C(Oc1ccc(Cl)cc1)n1ccnc1 (configuration not stated) in this assay.
Solution: inactive

Exercise: Answer briefly: the call reported for "CCOC(=O)CC(=O)c1cc(F)c(Cl)nc1Cl" in this assay.
Solution: inactive

Exercise: Answer briefly: the call reported for "CCc1cccc(N(C)C(N)=Nc2cccc3ccccc23)c1" in this assay.
Solution: inactive

Exercise: Answer briefly: the call reported for "O=Cc1cc2ccccc2o1" in this assay.
Solution: inactive

Exercise: Answer briefly: the call reported for "Cc1c(C)n(Cc2ccccc2)c2ccc(C(=O)OCCN(C)C)cc12" in this assay.
Solution: inactive

Exercise: Answer briefly: the call reported for "Cc1ccc(S(=O)(=O)NC2CCCCC2)cc1" in this assay.
Solution: inactive

Exercise: Answer briefly: the call reported for "C[C@H]1[C@@H](OC(=O)CCC(=O)O)O[C@@H]2OC3(C)CC[C@H]4[C@H](C)CC[C@@H]1[C@@]24OO3" in this assay.
Solution: inactive

Exercise: Answer briefly: the call reported for "COc1ccc(Cl)cc1C(=O)NCCc1ccc(S(=O)(=O)NC(=O)NC2CCCCC2)cc1" in this assay.
Solution: inactive

Exercise: Answer briefly: the call reported for "O=C(O)c1ccc[n+]([O-])c1" in this assay.
Solution: inactive

Exercise: Answer briefly: the call reported for "O=C=Nc1ccc(Cc2ccc(N=C=O)cc2)cc1" in this assay.
Solution: inactive

Exercise: Answer briefly: the call reported for "CCCCC(=O)OCC(=O)[C@H]1[C@H](C)C[C@H]2[C@@H]3C[C@H](F)C4=CC(=O)C=C[C@]4(C)[C@@]3(F)[C@@H](O)C[C@@]21C" in this assay.
Solution: inactive

Exercise: Answer briefly: the call reported for "CCOC(=O)c1c[nH]c2cc(OCC(C)C)c(OCC(C)C)cc2c1=O" in this assay.
Solution: inactive

Exercise: Answer briefly: the call reported for "CC1(C)[C@@H](O[C@H]2O[C@H](C(=O)O)[C@@H](O)[C@H](O)[C@H]2O[C@@H]2O[C@H](C(=O)O)[C@@H](O)[C@H](O)[C@H]2O)CC[C@]2(C)[C@H]3C(=O)C=C4[C@@H]5C[C@@](C)(C(=O)O)CC[C@]5(C)CC[C@@]4(C)[C@]3(C)CC[C@@H]12" in this assay.
Solution: inactive

Exercise: Answer briefly: the call reported for "O=S(c1cc(Cl)cc(Cl)c1O)c1cc(Cl)cc(Cl)c1O" in this assay.
Solution: active

Exercise: Answer briefly: the call reported for "CCCCOc1cc(C(=O)OCCN(CC)CC)ccc1N" in this assay.
Solution: inactive

Exercise: Answer briefly: the call reported for "O=Cc1ccc(Cl)c(Cl)c1" in this assay.
Solution: inactive

Exercise: Answer briefly: the call reported for "Clc1ccc(Sc2cc(Cl)c(Cl)cc2Cl)cc1" in this assay.
Solution: inactive

* * *

assay_target: Transcription factor E2F1 (Homo sapiens)
assay_procedure: ATG_E2F_CIS: Attagene CIS-FACTORIAL HepG2 Assay for human E2F Transcription Factor 1 (AID 2282935)
protocol_conditions: HepG2 Attagene cis-reporter, E2F reporter RNA transcripts; actives raise or lower the signal
Activity calls are given as the source filed them. Rule for the calls: active = hit-call score of the fitted dose curve at least 0.9, where 1 is the maximum; inactive = score below 0.9.
measure: outcome

# example entries with known answers
{"compound": "CC(C)=CCOC(=O)c1ccccc1", "assay_target": "Transcription factor E2F1 (Homo sapiens)", "outcome": "inactive"}
{"compound": "O=C(O)/C=C/C(=O)O", "assay_target": "Transcription factor E2F1 (Homo sapiens)", "outcome": "inactive"}
{"compound": "O=C(C1CCCCC1)N1CC(=O)N2CCc3ccccc3C2C1 (stereo not given)", "assay_target": "Transcription factor E2F1 (Homo sapiens)", "outcome": "inactive"}
{"compound": "Nc1nnc(-c2ccc([N+](=O)[O-])o2)o1", "assay_target": "Transcription factor E2F1 (Homo sapiens)", "outcome": "inactive"}
{"compound": "CCCCC(CC)COC(=O)CS (stereo not given)", "assay_target": "Transcription factor E2F1 (Homo sapiens)", "outcome": "inactive"}

Entry "OCCN(CCO)c1cccc(Cl)c1" under Transcription factor E2F1 (Homo sapiens) had outcome of inactive

Entry "O=C(c1ccccc1)c1ccccc1O" under Transcription factor E2F1 (Homo sapiens) had outcome of inactive

Entry CCCCCCC(O)CCCCCCCCCCC(=O)OC (stereo not given) under Transcription factor E2F1 (Homo sapiens) had outcome of inactive

Entry "C[C@H]1C[C@H]2[C@@H]3CCC4=CC(=O)C=C[C@]4(C)[C@@]3(F)[C@@H](O)C[C@]2(C)[C@@]1(O)C(=O)CO" under Transcription factor E2F1 (Homo sapiens) had outcome of inactive

Entry "CCCCOC(=O)COc1ccc(Cl)cc1Cl" under Transcription factor E2F1 (Homo sapiens) had outcome of inactive

Entry CC1=NN(c2cc(Cl)c(S(=O)(=O)O)cc2Cl)C(=O)C1N=Nc1ccc(S(=O)(=O)O)cc1 (stereo not given) under Transcription factor E2F1 (Homo sapiens) had outcome of inactive

Entry "Cc1cc2nc3c(=O)[nH]c(=O)nc-3n(C[C@H](O)[C@H](O)[C@H](O)CO)c2cc1C" under Transcription factor E2F1 (Homo sapiens) had outcome of inactive

Entry "OCCOCCOCCOCCOCCO" under Transcription factor E2F1 (Homo sapiens) had outcome of inactive

Entry "CC=CC(=O)O" under Transcription factor E2F1 (Homo sapiens) had outcome of inactive

Entry "CNC(=C[N+](=O)[O-])NCCSCc1csc(CN(C)C)n1" under Transcription factor E2F1 (Homo sapiens) had outcome of inactive

Entry "Clc1ccccn1" under Transcription factor E2F1 (Homo sapiens) had outcome of inactive

Entry "CC(O)(P(=O)(O)O)P(=O)(O)O" under Transcription factor E2F1 (Homo sapiens) had outcome of inactive

Entry "Oc1ccc(Cl)cc1C1CCCC1" under Transcription factor E2F1 (Homo sapiens) had outcome of inactive

Entry COc1ccccc1OCC(O)CO (stereo not given) under Transcription factor E2F1 (Homo sapiens) had outcome of inactive

Entry "CCCCNC(N)=O" under Transcription factor E2F1 (Homo sapiens) had outcome of inactive

* * *

assay_procedure: CCTE_Harrill_HTTr_Apoptosis_MCF7: CCTE's 6-hour Apoptosis Assessment for the High-Throughput Transcriptomics (HTTr) Platform, in MCF-7 cells cultured in DMEM + 10% fetal bovine serum, Harrill Lab (AID 2284011)
Text: This is a cell-based assay that evaluates apoptosis using high content imaging to evaluate activation of caspase-3/7 using the CellEvent Caspase 3/7 Green detection reagent in 384-well format.One of seven assay components measured from the CCTE_Harrill_HTTr_Apoptosis assay. This was part of a full screening experiment. This is a cell-based assay that evaluates apoptosis in MCF-7 cells cultured in DMEM + 10% fetal bovine serum. […]
The source made the active and inactive calls. The calls were made as follows: active = hit-call score of the fitted dose curve at least 0.9, where 1 is the maximum; inactive = score below 0.9.
Classes to choose from: active, inactive

Exercise: Answer briefly: the call reported for "O=C(O)Cc1c[nH]c2ccccc12" in this assay.
Solution: inactive

Exercise: Answer briefly: the call reported for "Cc1cccnc1" in this assay.
Solution: inactive

Exercise: Answer briefly: the call reported for "NCc1ccccc1" in this assay.
Solution: inactive

Exercise: Answer briefly: the call reported for C=C(C)C1CCC(C)(O)CC1 (stereo not drawn) in this assay.
Solution: inactive

Exercise: Answer briefly: the call reported for "C[C@@H]1[C@H](O)[C@@H](C)/C=C/C=C/C=C/C=C/C=C/C=C/C=C/[C@H](O[C@@H]2O[C@H](C)[C@@H](O)[C@H](N)[C@@H]2O)C[C@@H]2O[C@](O)(C[C@@H](O)C[C@@H](O)[C@H](O)CC[C@@H](O)C[C@@H](O)CC(=O)O[C@H]1C)C[C@H](O)[C@H]2C(=O)O" in this assay.
Solution: inactive

Exercise: Answer briefly: the call reported for "Clc1ccccn1" in this assay.
Solution: inactive

Exercise: Answer briefly: the call reported for "COc1ccc2ccccc2c1" in this assay.
Solution: inactive

Exercise: Answer briefly: the call reported for "COc1ccccc1Oc1c(NS(=O)(=O)c2ccc(C(C)(C)C)cc2)nc(-c2ncccn2)nc1OCCO" in this assay.
Solution: inactive

Exercise: Answer briefly: the call reported for "CC(C)(C)NC[C@H](O)COc1nsnc1N1CCOCC1" in this assay.
Solution: inactive

Exercise: Answer briefly: the call reported for COc1ccccc1OCC(O)COC(N)=O (stereo not drawn) in this assay.
Solution: inactive

Exercise: Answer briefly: the call reported for "Cc1ccnc(N)c1" in this assay.
Solution: inactive

Exercise: Answer briefly: the call reported for "CO[C@@H]1[C@H](OC(=O)/C=C/C=C/C=C/C=C/C(=O)O)CC[C@]2(CO2)[C@H]1[C@@]1(C)O[C@@H]1CC=C(C)C" in this assay.
Solution: inactive

Exercise: Answer briefly: the call reported for CNCCC(Oc1ccc(C(F)(F)F)cc1)c1ccccc1 (stereo not drawn) in this assay.
Solution: active
